Where do these numbers come from? They come from patent US20210380703A1.

assay.target: T1, human ACVR2A (human, UniProt P27037 20-135, limits assumed); also: test concentration or dose not given here
T1 construct: coated antigen of the initial ELISA; also called activin receptor, type II A
T1 sequence (P27037 20-135 limits assumed): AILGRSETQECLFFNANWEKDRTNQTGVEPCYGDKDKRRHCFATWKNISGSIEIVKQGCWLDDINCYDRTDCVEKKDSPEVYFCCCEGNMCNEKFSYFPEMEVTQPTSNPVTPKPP
procedure.details: ELISA
The label depends only on optical density: yes if it is at least 3 OD, no if it is smaller.

[Q] Please check the record 373_B07 (antibody, V domains shown, Group III) VH: EVQLLESGGGLVQPGGSLRLSCAASGFTFDSYSMNWVRQAPGKGLEWVSGINYNGGYTSYADSVKGRFTISRDNSKNTLYLQMNSLRAEDTAVYYCARGANWHDTALDYWGQGTLVTVSS VL: DIQMTQSPSSLSASVGDRVTITCRASQSILTYVNWYQQKPGKAPKLVIYAATSRASGVPSRFSGSGSGTDFTLTISSLQPEDFATYYCQQSYELPLTFGGGTKVEIK and state if its optical density is at or above 3 OD.
[A] yes

[Q] Param item: 373_D03 (antibody, V domains shown, Group III) VH: EVQLLESGGGLVQPGGSLRLSCAASGFTFSSYSMNWVRQAPGKGLEWVSGINYNGGYTSYADSVKGRFTISRDNSKNTLYLQMNSLRAEDTAVYYCARGANWHDTALDYWGQGTLVTVSS VL: DIQMTQSPSSLSASVGDRVTITCRASQSIVSYLNWYQQKPGKAPKLLIYAATSLASGVPSRFSGSGSGTDFTLTISSLQPEDFATYYCQQSYDTPLTFGGGTKVEIK
[A] yes

[Q] Likewise for 374_E12 (antibody, V domains shown, Group III) VH: EVQLLESGGGLVQPGGSLRLSCAASGFTFSSYSMNWVRQAPGKGLEWVSGINYNGGYKSYADSVKGRFTISRDNSKNTLYLQMNSLRAEDTAVYYCARGANWHDTALDYWGQGTLVTVSS VL: DIQMTQSPSSLSASVGDRVTITCRASQSILSYLNWYQQKPGKAPKLVIYAATSRASGVPSRFSGSGSGTDFTLTISSLQPEDFATYYCQQSYDNPLTFGGGTKVEIK ?
[A] yes

[Q] Then what about the binder 371_B09 (antibody, V domains shown, Group III) VH: EVQLLESGGGLVQPGGSLRLSCAASGFTFSSYSMNWVRQAPGKGLEWVAGINYNSGYTGYADSVKGRFTISRDNSKNTLYLQMNSLRAEDTAVYYCARGANWHDTHLDYWGQGTLVTVSS VL: DIQMTQSPSSLSASVGDRVTITCRASQSILSYVNWYQQKPGKAPKLVIYATTSLASGVPSRFSGSGSGTDFTLTISSLQPEDFATYYCQQSYDTPLTFGGGTKVEIK ?
[A] no

[Q] Now the same for 375_B12 (antibody, V domains shown, Group III) VH: EVQLLESGGGLVQPGGSLRLSCAASGFTFDSYSMNWVRQAPGKGLEWVAGINYNGGYKSYADSVKGRFTISRDNSKNTLYLQMNSLRAEDTAVYYCARGANWHDTALDYWGQGTLVTVSS VL: DIQMTQSPSSLSASVGDRVTITCRASQSIVTYLNWYQQKPGKAPKLLIYAATSRASGVPSRFSGSGSGTDFTLTISSLQPEDFATYYCQQSYDTPLTFGGGTKVEIK
[A] yes

[Q] Cool, now 374_F07 (antibody, V domains shown, Group III) VH: EVQLLESGGGLVQPGGSLRLSCAASGFTFDSYSMNWVRQAPGKGLEWVASINYNGGYTGYADSVKGRFTISRDNSKNTLYLQMNSLRAEDTAVYYCARGANWHDTHLDYWGQGTLVTVSS VL: DIQMTQSPSSLSASVGDRVTITCRASQSILSYLNWYQQKPGKAPKLVIYAVTSLASGVPSRFSGSGSGTDFTLTISSLQPEDFATYYCQQSYESPLTFGGGTKVEIK
[A] yes

[Q] Now this one: 374_G09 (antibody, V domains shown, Group III) VH: EVQLLESGGGLVQPGGSLRLSCAASGFTFSSYSMNWVRQAPGKGLEWVAGINYNGGYKGYADSVKGRFTISRDNSKNTLYLQMNSLRAEDTAVYYCARGANWHDTHLDYWGQGTLVTVSS VL: DIQMTQSPSSLSASVGDRVTITCRASQSIVRYLNWYQQKPGKAPKLVIYAATSLASGVPSRFSGSGSGTDFTLTISSLQPEDFATYYCQQSYELPLTFGGGTKVEIK
[A] yes

[Q] Now this one: 371_G09 (antibody, V domains shown, Group III) VH: EVQLLESGGGLVQPGGSLRLSCAASGFTFSSYSMNWVRQAPGKGLEWVANINYNGGYTGYADSVKGRFTISRDNSKNTLYLQMNSLRAEDTAVYYCARGANWHDTALDYWGQGTLVTVSS VL: DIQMTQSPSSLSASVGDRVTITCRASQSILSYLNWYQQKPGKAPKLVIYAATSRASGVPSRFSGSGSGTDFTLTISSLQPEDFATYYCQQSDSTPLTFGGGTKVEIK
[A] no
